# Test system: SN12C renal
# method-description: NCI-60 one-dose screen, 48 h
# experimental-context: 10 µM unless noted
The panel holds about 83,000 compounds, 20% with a hit somewhere; the sample as a whole holds those more often. Activity calls are given as the source filed them. How the source made its calls: active means growth percent below 10; inactive means the rest.
Give your call using only these classes: active, inactive

**Q:** Tell me the recorded outcome of this test for O=C1/C(=C/c2ccc(F)cc2)C=C(c2ccccc2)N1CCc1ccccc1 .
**A:** inactive

**Q:** Tell me the recorded outcome of this test for C[C@H]1[C@H]2[C@H]3CC[C@@H]4[C@@]5(C)C/C(=C/c6cccnc6)C(=O)C(C)(C)[C@@H]5CC[C@@]4(C)[C@]3(C)CC[C@]23CO[C@]1(C)[C@@H](C(=O)/C=C\c1cccnc1)C3 .
**A:** active

**Q:** Tell me the recorded outcome of this test for COC(=O)c1c2c(c(C)[n+]([O-])c1C)C(=O)C(NCc1ccc(F)cc1)=CC2=O .
**A:** active
